METHOD DESCRIPTION: soluble on expression in E. coli; label from the status in PepcDB or PDB records

SEQUENCE: MPIRFLHTADLHLDSPLRTFGDLARERRRDFLKTFDRIVNLAIKREVDCILIAGDLFDSTSVGAETVGRVQDAFSRLAGRGVQVVLIPGTHDNIISAESVYSRYQFTGVHILREPAVDEPLRLDIRGEAVFFYGFAYRSDRSREALESMRRRSGDGIHVGLLHGSLKGNPEWEMRKKDIPFSVADLVALDLDYIALGHYHDAACLEEGGRVIACYPGSPEGKKFGENGPRYALIVEVAPGNASVERVEVQTRIIREFNVDASLFAEPAALEAELARLGTSDTVGRIRLCGTVEEPLDTANLSGRVKGNFAWLELVDETDLYNSGHVKRMEREDSIRGLFIRKIHERYDAAGSDAERELCRDALRLVMGRFSRGGGN
soluble on expression in E. coli: not soluble
--
SEQUENCE: MAEEPKGVPLSELSLQQLGELQKNCEQELNFFQESFNALKGLLTRNEKSISALDDVKIATAGHTALIPLSESLYIRAELSDPSKHLVEIGTGYFVELDREKAKAIFDRKKEHITKQVETVEGILKEKRRTRAYISDAFQTKVQSQLATMNTQ
soluble on expression in E. coli: not soluble
--
SEQUENCE: GKHTVPYTISVDGITALHRTYFVFPENKKVLYQEIDSKVKNELASQRGVTTEKINNAQTATYTLTLNDGNKKVVNLKKNDDAKNSIDPSTIKQIQIVVK
soluble on expression in E. coli: soluble
--
SEQUENCE: AEMKNLKIEVVRYNPEVDTAPHSAFYEVPYDATTSLLDALGYIKDNLAPDLSYRWSCRMAICGSCGMMVNNVPKLACKTFLRDYTDGMKVEALANFPIERDLVVDMTHFIESLEAIKPYIIGNSRTADQGTNIQTPAQMAKYHQFSGCINCGLCYAACPQFGLNPEFIGPAAITLAHRYNEDSRDHGKKERMAQLNSQNGVWSCTFVGYCSEVCPKHVDPAAAIQQGKVESSKDFLIATLKPR
soluble on expression in E. coli: soluble
--
SEQUENCE: MSLGKKLKIFFIDDDIALGHICTRIMQEEGYEVLYQTSLNGAKACIVETHPDMIVLDVEIGNKNGIEAVPELKAIAPNTPILFISSHTNSQLVVQALSAGAVAYLKKPLEIDELIAYIKRYAISHPYQIKIGSLLLDTDTQLLCTKELRVIKQLSEAEYKLLKLLVAYKEQLVERRQIEEELWGKVNGNEQGINNLISKLRKYLSIDPTIELVTIPRNGYKLSVNLSEGHHHHHH
soluble on expression in E. coli: soluble
--
SEQUENCE: MGSDKIHHHHHHMDSVDLEVLRSSVRWQQEGHRVLLVTVVRTWGSSPRPEGAMLAVRDDGLVVGSVSGGCIEDDLIDRVRRLGITADHPESVKYGISAEEAHRFGLPCGGTIELVTEPLKPASGIAELLDAVENGRLATRTLDMATGTATLGPAEATDGLVFDGNSLLTIHGPRYRMLVIGAGQLSKYLCQIAVGLGFQVTVCDPREEYTETWDIPGVTMVRTMPDDTVTDMKLDERCAVIALTHDPKLDDLALMEALRTRAFYVGALGSRRNNQARRERLKEFDLNDVQLARLHGPVGIFIGSRTPPEIAISILAEVVAAKNHVSLPDILQVEGAKAARELAAGTGSSCDT
soluble on expression in E. coli: not soluble
